Hello, the source for this data is patent US6908919B2, in case you need it.

# assayed target: Human factor Xa (Homo sapiens, UniProt P00742)
# Sequence (P00742 41-179 limits assumed): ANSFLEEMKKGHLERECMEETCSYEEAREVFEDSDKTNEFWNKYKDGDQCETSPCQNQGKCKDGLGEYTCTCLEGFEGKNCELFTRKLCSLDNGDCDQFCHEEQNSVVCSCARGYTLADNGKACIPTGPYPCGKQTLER
# Sequence (P00742 235-488 limits assumed): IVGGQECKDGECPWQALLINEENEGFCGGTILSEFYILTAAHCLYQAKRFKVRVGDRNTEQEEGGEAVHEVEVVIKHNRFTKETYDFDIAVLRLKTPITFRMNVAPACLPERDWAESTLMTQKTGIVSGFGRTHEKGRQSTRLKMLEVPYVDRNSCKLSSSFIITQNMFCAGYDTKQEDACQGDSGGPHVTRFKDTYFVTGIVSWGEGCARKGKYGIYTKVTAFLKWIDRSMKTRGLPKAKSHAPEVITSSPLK
# assay details: Xa Assay
# Assay type: biochemical
# Design: purchased Enzyme Research Laboratories, South Bend Ind
# stated conditions: at 30 µM inhibitor
recorded endpoint: % Inhibition Factor Xa (30 µM) (%)
Number in %, nothing else.

Cc1c(Cl)nc(NCCc2ccncc2)c(=O)n1CC(=O)NCc1ccc(C(=N)N)cc1 [1471-5] ... 12

[in] Could you tell me which % Inhibition Factor Xa (30 µM) is on file for N=C(N)c1ccc(CNC(=O)Cn2c(-c3ccccc3)c(Cl)nc(NCCCn3ccnc3)c2=O)cc1 [1507-05] ?
[out] 10

[in] Could you tell me which % Inhibition Factor Xa (30 µM) is on file for N=C(N)c1ccc(CNC(=O)Cn2c(-c3ccc(-c4ccccc4)cc3)c(Cl)nc(NCCc3ccccc3)c2=O)cc1 [1471-71] ?
[out] 0

[in] Could you tell me which % Inhibition Factor Xa (30 µM) is on file for N=C(N)c1ccc(CNC(=O)Cn2c(-c3ccccc3)c(Cl)nc(NCc3ccc(Cl)cc3)c2=O)cc1 [1507-46] ?
[out] 8

[in] Could you tell me which % Inhibition Factor Xa (30 µM) is on file for CCc1c(Cl)nc(NCCc2ccc(Cl)cc2)c(=O)n1CC(=O)NCc1ccc(C(=N)N)cc1 [1471-58] ?
[out] 0

[in] Could you tell me which % Inhibition Factor Xa (30 µM) is on file for N=C(N)c1ccc(CNC(=O)Cn2c(-c3ccc(Cl)cc3)c(Cl)nc(NCCc3cccc(Cl)c3)c2=O)cc1 [1471-22] ?
[out] 28

[in] Could you tell me which % Inhibition Factor Xa (30 µM) is on file for N=C(N)NC/C=C\CNC(=O)Cn1c(-c2ccccc2)cnc(NCCc2ccccc2)c1=O [Example 37] ?
[out] 0

[in] Could you tell me which % Inhibition Factor Xa (30 µM) is on file for CC(C)Nc1nc(Cl)c(-c2cccc(N)c2)n(CC(=O)NCc2ccc(C(=N)N)c(F)c2)c1=O [Example 42] ?
[out] 0

###

Quick reference: % Inhibition Factor Xa (30 µM) of the listed items.
# assayed target: Human factor Xa (Homo sapiens, UniProt P00742)
# assay details: Xa Assay
# Assay type: biochemical
# Design: purchased Enzyme Research Laboratories, South Bend Ind
# stated conditions: at 30 µM
Number in %, nothing else.

Check out these entries, answers already filled in.
CCNc1nc(Cl)c(-c2cccc(N)c2)n(CC(=O)NCc2ccc(C(=N)N)cc2F)c1=O [1543-31] ... 8
N=C(N)c1ccc(CNC(=O)Cn2c(-c3cccc(N)c3)c(Cl)nc(NCCN3CCCCC3)c2=O)cc1 [1543-15] ... 41
CC(CNc1nc(Cl)c(-c2cccc(N)c2)n(CC(=O)NCc2ccc(C(=N)N)cc2)c1=O)N(C)C (stereo not drawn) [1543-19] ... 11
C[Si](C)(C)CNc1nc(Cl)c(-c2ccccc2)n(CC(=O)NCc2ccc(C(=N)N)cc2)c1=O [Example 1517-36] ... 0
N=C(N)c1ccc(CNC(=O)Cn2c(-c3cccc(N)c3)c(Cl)nc(NC3CCCC3)c2=O)c(F)c1 [1543-34] ... 20
N=C(N)c1ccc(CNC(=O)Cn2c(-c3ccsc3)c(Cl)nc(NCCc3cccc(Cl)c3)c2=O)cc1 [Example 1517-19] ... 0

[in] Could you tell me which % Inhibition Factor Xa (30 µM) is on file for CC(C)CNc1nc(Cl)c(-c2cccc(N)c2)n(CC(=O)NCc2ccc(C(=N)N)cc2F)c1=O [1543-38] ?
[out] 14

[in] Could you tell me which % Inhibition Factor Xa (30 µM) is on file for CCCNc1nc(Cl)c(-c2cccc(N)c2)n(CC(=O)NCc2ccc(C(=N)N)cc2F)c1=O [1543-35] ?
[out] 8

[in] Could you tell me which % Inhibition Factor Xa (30 µM) is on file for CCCCNc1nc(Cl)c(-c2cccc(N)c2)n(CC(=O)NCc2ccc(C(=N)N)cc2F)c1=O [1543-36] ?
[out] 15

[in] Could you tell me which % Inhibition Factor Xa (30 µM) is on file for N=C(N)c1ccc(CNC(=O)Cn2c(-c3ccccc3)c(Cl)nc(NC3CCCCC3)c2=O)cc1 [Example 1517-25] ?
[out] 0

[in] Could you tell me which % Inhibition Factor Xa (30 µM) is on file for CSCC(C(=O)NCc1ccc(C(=N)N)cc1)n1c(-c2ccccc2)c(Cl)nc(NCCc2ccccc2)c1=O (stereo not drawn) [Example 1517-16] ?
[out] 0

[in] Could you tell me which % Inhibition Factor Xa (30 µM) is on file for N=C(N)c1ccc(CNC(=O)Cn2c(-c3ccsc3)c(Cl)nc(NCCc3ccccc3)c2=O)cc1 [Example 1517-13] ?
[out] 0

[in] Could you tell me which % Inhibition Factor Xa (30 µM) is on file for CN(C)CCNc1nc(Cl)c(-c2cccc(N)c2)n(CC(=O)NCc2ccc(C(=N)N)cc2)c1=O [1543-09] ?
[out] 12

[in] Could you tell me which % Inhibition Factor Xa (30 µM) is on file for CCCC(CCC)Nc1nc(Cl)c(-c2ccccc2)n(CC(=O)NCc2ccc(C(=N)N)cc2)c1=O [Example 1517-26] ?
[out] 0

[in] Could you tell me which % Inhibition Factor Xa (30 µM) is on file for N=C(N)c1ccc(CNC(=O)Cn2c(-c3cccc(N)c3)c(Cl)nc(NC3CCC3)c2=O)c(F)c1 [1543-39] ?
[out] 14

[in] Could you tell me which % Inhibition Factor Xa (30 µM) is on file for N=C(N)c1ccc(CNC(=O)Cn2c(-c3cccc(N)c3)c(Cl)nc(NCCCn3ccnc3)c2=O)cc1 [1543-07] ?
[out] 19

[in] Could you tell me which % Inhibition Factor Xa (30 µM) is on file for CCCCNc1nc(Cl)c(-c2ccccc2)n(CC(=O)NCc2ccc(C(=N)N)cc2)c1=O [Example 1517-35] ?
[out] 0

[in] Could you tell me which % Inhibition Factor Xa (30 µM) is on file for N=C(N)c1ccc(CNC(=O)Cn2c(-c3c(Cl)cccc3Cl)c(Cl)nc(NCCc3cccc(Cl)c3)c2=O)cc1 [Example 1517-24] ?
[out] 0

[in] Could you tell me which % Inhibition Factor Xa (30 µM) is on file for CC(C)Nc1nc(Cl)c(-c2cccc(N)c2)n(CC(=O)NCc2ccc(C(=N)N)cc2F)c1=O [1543-40] ?
[out] 10

[in] Could you tell me which % Inhibition Factor Xa (30 µM) is on file for N=C(N)c1ccc(CNC(=O)Cn2c(-c3cccc(N)c3)c(Cl)nc(NCCCN3CCCC3)c2=O)cc1 [1543-27] ?
[out] 27

[in] Could you tell me which % Inhibition Factor Xa (30 µM) is on file for N=C(N)c1ccc(CNC(=O)Cn2c(-c3cccc(N)c3)c(Cl)nc(NCCCO)c2=O)cc1 [1543-13] ?
[out] 12
